A collection of compounds and their measured MIC
- Test system: Enterobacterales
- METHOD: MIC, broth microdilution, CDC/FDA Antibiotic Resistance Isolate Bank (Example 7, Tables 8, 11, 12)
- Type: cell-based
- SETTINGS: Klebsiella pneumoniae, KUB No. 5538, AR Bank# 41; read-out: MIC
Give just the number in µg/mL; leave the unit off.

INSERT INTO measurements (compound, observable, quantity_unit, reading) VALUES
  ('C[C@H]1COc2c(N3CCN(C)CC3)c(F)cc3c(=O)c(C(=O)O)cn1c23 [Levofloxacin, levofloxacin]', 'MIC', 'µg/mL', 8);

Ask | # get_value(readout= MIC, system= Enterobacterales) for CC(C)(O/N=C(\C(=O)N[C@@H]1C(=O)N2C(C(=O)[O-])=C(C[N+]3(CCNC(=O)c4ccc(O)c(O)c4Cl)CCCC3)CS[C@H]12)c1csc(N)n1)C(=O)O [Cefiderocol, cefiderocol]
Reply | 2

---

- System: P. aeruginosa
- METHOD: MIC, broth microdilution, CDC/FDA Antibiotic Resistance Isolate Bank (Example 7, Tables 10, 15)
- Assay type: cell-based
- SETTINGS: Pseudomonas aeruginosa, P. aeruginosa KUB No. 5700, AR Bank # 267; read-out: MIC
OBSERVABLE: MIC (µg/mL)
Give just the number in µg/mL; leave the unit off.

INSERT INTO assay_data (smiles_repr, measurement_target, observable, quantity_unit, reading) VALUES
  ('CN(C)c1cc(NC(=O)CNC(C)(C)C)c(O)c2c1C[C@H]1C[C@H]3[C@H](N(C)C)C(O)=C(C(N)=O)C(=O)[C@@]3(O)C(O)=C1C2=O', 'P. aeruginosa', 'MIC', 'µg/mL', 8),
  ('C[C@H]1COc2c(N3CCN(C)CC3)c(F)cc3c(=O)c(C(=O)O)cn1c23', 'P. aeruginosa', 'MIC', 'µg/mL', 32),
  ('C[C@H]1[C@H](NC(=O)/C(=N\OC(C)(C)C(=O)O)c2csc(N)n2)C(=O)N1S(=O)(=O)O', 'P. aeruginosa', 'MIC', 'µg/mL', 4),
  ('CO/N=C(\C(=O)N[C@@H]1C(=O)N2C(C(=O)[O-])=C(C[n+]3ccn4ncccc43)CS[C@H]12)c1nsc(N)n1', 'P. aeruginosa', 'MIC', 'µg/mL', 4),
  ('NCC[C@H](O)C(=O)N[C@@H]1C[C@H](N)[C@@H](O[C@H]2O[C@H](CN)[C@@H](O)[C@H](O)[C@H]2O)[C@H](O)[C@H]1O[C@H]1O[C@H](CO)[C@@H](O)[C@H](N)[C@H]1O', 'P. aeruginosa', 'MIC', 'µg/mL', 16);

Ask | Reported MIC, molecule `CC(C)(O/N=C(\C(=O)N[C@@H]1C(=O)N2C(C(=O)[O-])=C(C[N+]3(CCNC(=O)c4ccc(O)c(O)c4Cl)CCCC3)CS[C@H]12)c1csc(N)n1)C(=O)O` : ____
Reply | 0.12

---

- MEASUREMENT TARGET: KPC-2 (Klebsiella pneumoniae, UniProt Q9F663)
- Sequence (Q9F663 25-293 limits assumed): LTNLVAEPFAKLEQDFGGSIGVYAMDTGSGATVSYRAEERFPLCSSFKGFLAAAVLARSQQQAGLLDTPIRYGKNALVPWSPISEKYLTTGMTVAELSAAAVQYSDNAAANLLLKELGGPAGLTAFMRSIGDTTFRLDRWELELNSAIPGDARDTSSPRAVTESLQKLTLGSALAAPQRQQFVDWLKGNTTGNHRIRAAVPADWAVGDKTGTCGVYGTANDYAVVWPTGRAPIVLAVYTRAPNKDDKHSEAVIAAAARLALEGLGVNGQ
- METHOD: Ki,app against β-lactamase (Example 1, Table 1)
- Format: biochemical
- SETTINGS: KPC-2, class A; 30 min preincubation; n.d.: too low inhibitor activity at 100 µmol/L; read-out: Ki app
A collection of compounds and their measured pKi
Lab note — pKi values are minus log10 of concentrations in M.

Ask | Reported pKi, compound `O=C(O)C[C@@H]1CC[C@H](NC(=O)Cc2cccs2)B(O)O1` : ____
Reply | 7.20

Ask | Input `C[C@]1(Cn2ccnn2)[C@H](C(=O)O)N2C(=O)C[C@H]2S1(=O)=O`
Reply | 6.80

---

A collection of compounds and their measured MIC
- Test system: Enterobacterales
- METHOD: MIC, broth microdilution, CDC/FDA Antibiotic Resistance Isolate Bank (Example 7, Tables 8, 11, 12)
- Type: cell-based
- SETTINGS: Klebsiella pneumoniae, KUB No. 5565, AR Bank # 68; read-out: MIC
Give just the number in µg/mL; leave the unit off.

INSERT INTO measurements (smiles_repr, measurement_target, observable, reading) VALUES
  ('NCC[C@H](O)C(=O)N[C@@H]1C[C@H](N)[C@@H](O[C@H]2O[C@H](CN)[C@@H](O)[C@H](O)[C@H]2O)[C@H](O)[C@H]1O[C@H]1O[C@H](CO)[C@@H](O)[C@H](N)[C@H]1O', 'Enterobacterales', 'MIC', 64);

With those in mind, consider the next compound.
Ask | Reported MIC, compound `CC(C)(O/N=C(\C(=O)N[C@@H]1C(=O)N2C(C(=O)[O-])=C(C[N+]3(CCNC(=O)c4ccc(O)c(O)c4Cl)CCCC3)CS[C@H]12)c1csc(N)n1)C(=O)O` : ____
Reply | 2

---

- Test system: Enterobacterales
- METHOD: MIC, broth microdilution, CDC/FDA Antibiotic Resistance Isolate Bank (Example 7, Tables 8, 11, 12)
- Format: cell-based
- SETTINGS: Enterobacter cloacae, KUB No. 5570, AR Bank # 73; read-out: MIC
OBSERVABLE: MIC (µg/mL)
Give just the number in µg/mL; leave the unit off.

INSERT INTO results (smiles_repr, quantity_unit, reading) VALUES
  ('CO/N=C(\C(=O)N[C@@H]1C(=O)N2C(C(=O)[O-])=C(C[n+]3ccn4ncccc43)CS[C@H]12)c1nsc(N)n1', 'µg/mL', 0.25),
  ('CC(C)(O/N=C(\C(=O)N[C@@H]1C(=O)N2C(C(=O)[O-])=C(C[N+]3(CCNC(=O)c4ccc(O)c(O)c4Cl)CCCC3)CS[C@H]12)c1csc(N)n1)C(=O)O', 'µg/mL', 0.25),
  ('NCC[C@H](O)C(=O)N[C@@H]1C[C@H](N)[C@@H](O[C@H]2O[C@H](CN)[C@@H](O)[C@H](O)[C@H]2O)[C@H](O)[C@H]1O[C@H]1O[C@H](CO)[C@@H](O)[C@H](N)[C@H]1O', 'µg/mL', 0.25);

Ask | Reported MIC, compound `C[C@H]1[C@H](NC(=O)/C(=N\OC(C)(C)C(=O)O)c2csc(N)n2)C(=O)N1S(=O)(=O)O` : ____
Reply | 4

---

- Tested on: Enterobacterales
- METHOD: MIC, broth microdilution, CDC/FDA Antibiotic Resistance Isolate Bank (Example 7, Tables 8, 11, 12)
- Assay type: cell-based
- SETTINGS: Klebsiella pneumoniae, KUB No. 5584, AR Bank # 87; read-out: MIC
A collection of molecules and their measured MIC
Give just the number in µg/mL; leave the unit off.

Ask | Reported MIC, molecule `CC(C)(O/N=C(\C(=O)N[C@@H]1C(=O)N2C(C(=O)[O-])=C(C[N+]3(CCNC(=O)c4ccc(O)c(O)c4Cl)CCCC3)CS[C@H]12)c1csc(N)n1)C(=O)O` : ____
Reply | 1

Ask | Input `NCC[C@H](O)C(=O)N[C@@H]1C[C@H](N)[C@@H](O[C@H]2O[C@H](CN)[C@@H](O)[C@H](O)[C@H]2O)[C@H](O)[C@H]1O[C@H]1O[C@H](CO)[C@@H](O)[C@H](N)[C@H]1O`
Reply | 1

Ask | Input `CO/N=C(\C(=O)N[C@@H]1C(=O)N2C(C(=O)[O-])=C(C[n+]3ccn4ncccc43)CS[C@H]12)c1nsc(N)n1`
Reply | 32

---

- Tested on: Klebsiella pneumoniae
- METHOD: MIC, broth microdilution, standard strains and Japanese clinical isolates (Example 5, Table 4)
- Type: cell-based
- SETTINGS: ATCCBAA2078, KUB4000 Klebsiella pneumoniae ATCC BAA-2078, KPC-3
OBSERVABLE: MIC

INSERT INTO assay_data (smiles_repr, observable, reading) VALUES
  ('CC(C)(O/N=C(\C(=O)N[C@@H]1C(=O)N2C(C(=O)[O-])=C(C[N+]3(CCNC(=O)c4ccc(O)c(O)c4Cl)CCCC3)CS[C@H]12)c1csc(N)n1)C(=O)O', 'MIC', '2 µg/mL'),
  ('C[C@@H](O)[C@H]1C(=O)N2C(C(=O)O)=C(SCCN=CN)C[C@H]12', 'MIC', '8 µg/mL'),
  ('CC(C)(O/N=C(\C(=O)N[C@@H]1C(=O)N2C(C(=O)[O-])=C(C[n+]3ccccc3)CS[C@H]12)c1csc(N)n1)C(=O)O', 'MIC', '> 32 µg/mL');

With those in mind, consider the next compound.
Ask | Reported MIC, compound `C[C@@H](O)[C@H]1C(=O)N2C(C(=O)O)=C(S[C@@H]3CN[C@H](C(=O)N(C)C)C3)[C@H](C)[C@H]12` : ____
Reply | 4 µg/mL

---

- System: Enterobacterales
- METHOD: MIC, broth microdilution, CDC/FDA Antibiotic Resistance Isolate Bank (Example 7, Tables 8, 11, 12)
- Assay type: cell-based
- SETTINGS: Escherichia coli, Escherichia coli KUB No. 5794, AR Bank #450; read-out: MIC
OBSERVABLE: MIC (µg/mL)
Give just the number in µg/mL; leave the unit off.

INSERT INTO assay_data (smiles_repr, observable, reading) VALUES
  ('O=C(O)c1cn(C2CC2)c2cc(N3CCNCC3)c(F)cc2c1=O', 'MIC', 0.06),
  ('NCC[C@H](O)C(=O)N[C@@H]1C[C@H](N)[C@@H](O[C@H]2O[C@H](CN)[C@@H](O)[C@H](O)[C@H]2O)[C@H](O)[C@H]1O[C@H]1O[C@H](CO)[C@@H](O)[C@H](N)[C@H]1O', 'MIC', 2),
  ('CC(C)(O/N=C(\C(=O)N[C@@H]1C(=O)N2C(C(=O)[O-])=C(C[N+]3(CCNC(=O)c4ccc(O)c(O)c4Cl)CCCC3)CS[C@H]12)c1csc(N)n1)C(=O)O', 'MIC', 0.25);

With those in mind, consider the next compound.
Ask | # get_value(readout= MIC, system= Enterobacterales) for `C[C@H]1COc2c(N3CCN(C)CC3)c(F)cc3c(=O)c(C(=O)O)cn1c23`
Reply | 0.12
